Values from paper PMC9609428

test system: carrageenan-induced paw edema; test: In vivo carrageenan-induced paw edema in mice; conditions: Mus musculus, paw edema inhibition 8 h after carrageenan, doses 5, 10, 20, 30 and 40 µmol/kg, read-out: ED50 (95% Confidence Level)
# ED50 per entry
endpoint-label: ED50 (µmol/kg)

>>> df
                                   compound  endpoint_label  assay_value
0  Cc1ccc(-c2cc(C(F)(F)F)nn2-c2ccc(S(N)(=O)=O)cc2)cc1 [Celecoxib, celecoxib, reference compound]            ED50         16.2
1  CC(=NNC(=O)c1ccccc1O)c1nnn(-c2ccc(S(=O)(=O)Nc3nccc(C)n3)cc2)c1C [Compound 6j]            ED50         13.4
2  CC(=NNC(=O)C(C)c1ccc(CC(C)C)cc1)c1nnn(-c2ccc(S(=O)(=O)Nc3nccs3)cc2)c1C (centres unmarked) [Compound 6b]            ED50         11.7
3  O=C(O)Cc1ccccc1Nc1c(Cl)cccc1Cl [Diclofenac, diclofenac, reference compound]            ED50         18.4
4  CC(=NNC(=O)Cc1ccccc1Nc1c(Cl)cccc1Cl)c1nnn(-c2ccc(S(=O)(=O)Nc3nccs3)cc2)c1C [Compound 6e]            ED50         18.2

---

tested on: carrageenan-induced paw edema; assay: In vivo carrageenan-induced paw edema in mice; details: 10 µmol/kg b.wt po, 6 h after carrageenan
One threshold, 80%, splits the recorded percentage anti-inflammatory activity (AI%), 6 h values: lower ones are satisfied, equal or higher ones are not satisfied.

>>> print(df.to_string())
                                   compound  category_label
0  CC(=NNC(=O)c1ccccc1O)c1nnn(-c2ccc(S(=O)(=O)Nc3nccc(C)n3)cc2)c1C [Compound 6j]   not satisfied
1  Cc1ccc(-c2cc(C(F)(F)F)nn2-c2ccc(S(N)(=O)=O)cc2)cc1 [Celecoxib, celecoxib, reference compound]   not satisfied
2  O=C(O)Cc1ccccc1Nc1c(Cl)cccc1Cl [Diclofenac, diclofenac, reference compound]       satisfied
3  CC(=NNC(=O)C(C)c1ccc(CC(C)C)cc1)c1nnn(-c2ccc(S(=O)(=O)Nc3nccs3)cc2)c1C (centres unmarked) [Compound 6b]   not satisfied
4  CC(=NNC(=O)Cc1ccccc1Nc1c(Cl)cccc1Cl)c1nnn(-c2ccc(S(=O)(=O)Nc3nccs3)cc2)c1C [Compound 6e]       satisfied

---

endpoint-label: melting point

>>> df
                                   compound  endpoint_label    assay_value
0  CC(=NNC(=O)C(C)c1ccc(CC(C)C)cc1)c1nnn(-c2ccc(S(=O)(=O)Nc3ncccn3)cc2)c1C (stereo not drawn) [Compound 6c]   melting point  257 to 259 °C
1  CC(=NNC(=O)c1ccccc1O)c1nnn(-c2ccc(S(=O)(=O)Nc3ncccn3)cc2)c1C [Compound 6i]   melting point  248 to 250 °C
2  CC(=NNC(=O)c1ccccc1O)c1nnn(-c2ccc(S(=O)(=O)Nc3nccs3)cc2)c1C [Compound 6h]   melting point  227 to 229 °C
3  CC(=NNC(=O)Cc1ccccc1Nc1c(Cl)cccc1Cl)c1nnn(-c2ccc(S(N)(=O)=O)cc2)c1C [Compound 6d]   melting point  241 to 243 °C
4  CC(=NNC(=O)C(C)c1ccc(CC(C)C)cc1)c1nnn(-c2ccc(S(N)(=O)=O)cc2)c1C (stereo not drawn) [Compound 6a]   melting point  205 to 207 °C
5  CC(=NNC(=O)c1ccccc1O)c1nnn(-c2ccc(S(N)(=O)=O)cc2)c1C [Compound 6g]   melting point  220 to 222 °C
6  CC(=NNC(=O)Cc1ccccc1Nc1c(Cl)cccc1Cl)c1nnn(-c2ccc(S(=O)(=O)Nc3ncccn3)cc2)c1C [Compound 6f]   melting point  276 to 278 °C
7  CC(=O)c1nnn(-c2ccc(S(=O)(=O)Nc3ncccn3)cc2)c1C [Compound 4c]   melting point  233 to 235 °C
8  CC(=O)c1nnn(-c2ccc(S(=O)(=O)Nc3nccc(C)n3)cc2)c1C [Compound 4d]   melting point  241 to 243 °C

---

test system: carrageenan-induced paw edema; assay: In vivo carrageenan-induced paw edema in mice; conditions: 10 µmol/kg b.wt po, 0 h, mean ± SEM, n = 5
endpoint-label: Thickness of Edema, 0 h (mm)

>>> df
                                   compound  assay_value
0  CC(=NNC(=O)c1ccccc1O)c1nnn(-c2ccc(S(=O)(=O)Nc3nccc(C)n3)cc2)c1C         2.08
1  O=C(O)Cc1ccccc1Nc1c(Cl)cccc1Cl [Diclofenac, diclofenac, reference compound]         2.08
2  Cc1ccc(-c2cc(C(F)(F)F)nn2-c2ccc(S(N)(=O)=O)cc2)cc1 [Celecoxib, celecoxib, reference compound]         2.10
3  CC(=NNC(=O)C(C)c1ccc(CC(C)C)cc1)c1nnn(-c2ccc(S(=O)(=O)Nc3nccs3)cc2)c1C (centres unmarked)         2.14
4  CC(=NNC(=O)Cc1ccccc1Nc1c(Cl)cccc1Cl)c1nnn(-c2ccc(S(=O)(=O)Nc3nccs3)cc2)c1C         2.12

---

Target: human COX-2 (Homo sapiens)
Construct: purchased Cayman Chemicals Inc., Ann Arbor, MI, USA 560131
Sequence (P35354 18-604): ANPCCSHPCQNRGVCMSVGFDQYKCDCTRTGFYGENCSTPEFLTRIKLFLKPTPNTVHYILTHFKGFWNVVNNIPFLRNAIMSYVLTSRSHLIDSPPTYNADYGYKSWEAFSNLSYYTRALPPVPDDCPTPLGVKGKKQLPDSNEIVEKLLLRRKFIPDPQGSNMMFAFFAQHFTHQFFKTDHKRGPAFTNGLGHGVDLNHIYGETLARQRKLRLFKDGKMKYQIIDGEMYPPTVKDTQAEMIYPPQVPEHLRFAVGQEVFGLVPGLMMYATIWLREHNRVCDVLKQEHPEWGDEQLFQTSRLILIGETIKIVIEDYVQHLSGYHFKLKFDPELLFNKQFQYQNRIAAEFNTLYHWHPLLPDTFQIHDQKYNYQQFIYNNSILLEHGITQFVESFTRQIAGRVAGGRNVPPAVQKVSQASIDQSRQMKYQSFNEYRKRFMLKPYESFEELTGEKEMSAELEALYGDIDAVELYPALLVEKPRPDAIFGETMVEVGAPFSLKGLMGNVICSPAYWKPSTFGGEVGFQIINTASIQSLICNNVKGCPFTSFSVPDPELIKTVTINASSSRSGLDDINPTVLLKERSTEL
Experiment: In vitro human COX-2 enzymatic inhibitory activity (Cayman COX inhibitor screening assay kit)
Type: biochemical
Details: COX-2 selectivity index: COX-1 IC50/COX-2 IC50
endpoint-label: SI COX-1/COX-2

In [3]: df
Out[3]:
                                   compound  assay_value
0  CC(=O)c1nnn(-c2ccc(S(=O)(=O)Nc3ncccn3)cc2)c1C [Compound 4c]        91.44
1  CC(=NNC(=O)c1ccccc1O)c1nnn(-c2ccc(S(=O)(=O)Nc3nccs3)cc2)c1C [Compound 6h]        91.89
2  CC(=NNC(=O)Cc1ccccc1Nc1c(Cl)cccc1Cl)c1nnn(-c2ccc(S(N)(=O)=O)cc2)c1C [Compound 6d]          105

---

target: human COX-2 (Homo sapiens); construct: purchased Cayman Chemicals Inc., Ann Arbor, MI, USA 560131; test: In vitro human COX-2 enzymatic inhibitory activity (Cayman COX inhibitor screening assay kit); format: biochemical; conditions: COX-2 selectivity index: COX-1 IC50/COX-2 IC50
endpoint-label: SI COX-1/COX-2

                                   compound  assay_value
0  Cc1ccnc(NS(=O)(=O)c2ccc(N=[N+]=[N-])cc2)n1           46
1  CC(=NNC(=O)Cc1ccccc1Nc1c(Cl)cccc1Cl)c1nnn(-c2ccc(S(=O)(=O)Nc3ncccn3)cc2)c1C       158.38
2  CC(=NNC(=O)C(C)c1ccc(CC(C)C)cc1)c1nnn(-c2ccc(S(=O)(=O)Nc3ncccn3)cc2)c1C (centres unmarked)       159.57
3   [N-]=[N+]=Nc1ccc(S(=O)(=O)Nc2ncccn2)cc1        65.89
4  CC(=O)c1nnn(-c2ccc(S(=O)(=O)Nc3nccc(C)n3)cc2)c1C        84.27
5  CC(=NNC(=O)C(C)c1ccc(CC(C)C)cc1)c1nnn(-c2ccc(S(N)(=O)=O)cc2)c1C (centres unmarked)       114.13
6  CC(=NNC(=O)c1ccccc1O)c1nnn(-c2ccc(S(=O)(=O)Nc3ncccn3)cc2)c1C       146.14
7  CC(=NNC(=O)c1ccccc1O)c1nnn(-c2ccc(S(N)(=O)=O)cc2)c1C        83.38
